The reported numbers originate from ChEMBL document CHEMBL6114969.

test system: Staphylococcus aureus; assay: Antibacterial activity against methicillin-resistant Staphylococcus aureus ATCC 33591 incubated for 18 to 24 hrs in presence of 0.5 mg/ml of pepsin by broth microdilution method; format: functional; conditions: time 18-24 hrs
Property Measured: MIC (µM)
Entry rule: numbers only, all in µM.

smiles=CCCCCCCCCCCC(=O)N[C@@H](CCCNC(=N)N)C(=O)N[C@@H](CCCNC(=N)N)C(=O)N[C@H](Cc1c[nH]c2ccccc12)C(=O)O uom=µM test_result=16
smiles=CCCCCCCCCCCC(=O)N[C@@H](CCCNC(=N)N)C(=O)N[C@H](CCCNC(=N)N)C(=O)N[C@@H](Cc1c[nH]c2ccccc12)C(=O)O uom=µM test_result=64
smiles=CCCCCCCCCCCC(=O)N[C@@H](CCCNC(=N)N)C(=O)N[C@@H](CCCNC(=N)N)C(=O)N[C@@H](Cc1c[nH]c2ccccc12)C(=O)O uom=µM test_result=16

// next item, MIC requested
Query block: Which value of MIC has been reported for CCCCCCCCCCCC(=O)N[C@H](CCCNC(=N)N)C(=O)N[C@@H](CCCNC(=N)N)C(=O)N[C@@H](Cc1c[nH]c2ccccc12)C(=O)O in the records?
Result block: 8
